TARGET ENTITY: CID1 poly (U) polymerase (Schizosaccharomyces pombe, UniProt O13833)
Sequence (O13833 whole entry): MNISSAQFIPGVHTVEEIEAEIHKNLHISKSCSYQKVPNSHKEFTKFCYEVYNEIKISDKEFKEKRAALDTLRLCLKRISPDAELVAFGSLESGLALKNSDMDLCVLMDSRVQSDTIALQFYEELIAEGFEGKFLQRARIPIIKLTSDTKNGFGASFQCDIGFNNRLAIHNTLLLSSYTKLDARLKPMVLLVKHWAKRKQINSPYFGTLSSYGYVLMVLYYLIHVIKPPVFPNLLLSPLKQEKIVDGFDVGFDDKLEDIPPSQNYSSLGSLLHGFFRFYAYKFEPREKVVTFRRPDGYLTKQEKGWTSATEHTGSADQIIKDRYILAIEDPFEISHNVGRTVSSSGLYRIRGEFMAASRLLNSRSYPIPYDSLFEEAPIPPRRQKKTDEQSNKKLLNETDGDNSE
METHOD: biochemical
EXPERIMENTAL READOUT: pIC50
Remember the convention: pIC50 equals -log10 of concentration in molar.

# SMILES NOTATION, TARGET ENTITY, pIC50
rows = [
    ("O=C(Nc1ccc(S(=O)(=O)N2CCOCC2)cc1)c1cc(Cl)ccc1NS(=O)(=O)c1ccc(Cl)s1", "CID1 poly (U) polymerase (Schizosaccharomyces pombe, UniProt O13833)", 2.32),
]

// below: pIC50 requested for another compound
query: Item: O=C(c1cc(O)c(O)c(O)c1)c1ccc(O)c(O)c1O Test system: CID1 poly (U) polymerase (Schizosaccharomyces pombe, UniProt O13833) Read-out: pIC50 Value: ?
result: 4.06

---

TARGET ENTITY: RET1 (Trypanosoma brucei brucei, UniProt Q8WQX5, A749G/DEL18-18/G858D/N24H/V111I/W59S)
Construct: Full-length RET1 protein (975aa) was expressed in E. coli as an N-terminal GST-tagged fusion protein; made in house; host or cells: E. coli BL21 (DE3)
METHOD: Luciferase coupled PPi assay, 384 well format, RET1
Assay type: biochemical
MEASUREMENT CONTEXT: RET1 IC50, PPi assay 384-well follow-up; UTP 50 µM, RNA 20 nM
# Lookup of reported IC50 keyed by entry
// note: answer is a bare numeric in µM

# SMILES NOTATION, IC50 / µM
records = [
    ("O=C(c1cc(O)c(O)c(O)c1)c1ccc(O)c(O)c1O", 2),
]

query: I would be grateful if you could share the reported IC50 for O=C(Nc1ccc(S(=O)(=O)N2CCOCC2)cc1)c1cc(Cl)ccc1NS(=O)(=O)c1ccc(Cl)s1 .
result: 70
